# System: SEM cells
# test_summary: cell viability relative to DMSO control; higher = less cytotoxic
# condition_info: HPLM + 10% dialyzed FBS; 48 h; 0.19 µM
parameter_measured: cell viability (%)
One number for each entry, in %.

compound	parameter_measured	uom	recorded_result
CCN1CCN(Cc2ccc(-c3cc4c(N[C@H](C)c5ccccc5)ncnc4[nH]3)cc2)CC1	cell viability	%	116
Cc1cnc(Nc2ccc(OCCN3CCCC3)cc2)nc1Nc1cccc([S+](=O)([O-])NC(C)(C)C)c1	cell viability	%	89.5

State recorded cell viability for all listed compounds.
1. CN(C(=O)c1ccc(F)cc1C(F)(F)F)C1CCN(c2nnc(-c3ccnn3C)c3ccccc23)CC1
2. CCC(CC)[C@H](NC(C)=O)[C@@H]1[C@H](O)[C@@H](C(=O)O)C[C@H]1NC(=N)N

// result
85.1
32.7

Hi there! I need cell viability for each item below, if you can.
1. c1ccc(-c2nn3c(c2-c2ccnc4cc(OCCN5CCOCC5)ccc24)CCC3)nc1
2. CCCn1c(=O)c2[nH]c(C34CC5CC3C[C@@H](C5)C4)nc2n(CCC)c1=O
3. CN[C@@H](C)C(=O)N[C@H]1CCCC[C@H]2CC[C@@H](C(=O)N[C@@H](c3ccccc3)c3cn(CCCCc4ccc(CCCCn5cc([C@@H](NC(=O)[C@@H]6CC[C@@H]7CCCC[C@H](NC(=O)[C@H](C)NC)C(=O)N76)c6ccccc6)nn5)cc4)nn3)N2C1=O

// result
1. 129
2. 122
3. 89.2

Parameter requested: cell viability. Apply to each item below.
1. C[C@H]1CCC/C=C/C2C[C@H](O)C[C@H]2[C@H](O)/C=C/C(=O)O1 (stereo partly specified)
2. NC/1=N/C(=O)N(/C=C1)[C@H]2CC[C@@H](CO)O2
3. O=C(c1ccc(F)cc1)C1CCN(CCn2c(=O)[nH]c3ccccc3c2=O)CC1
4. CCOc1cc2c(c(F)c1OCC)C(=N)N(CC(=O)c1cc(N3CCOCC3)c(OC)c(C(C)(C)C)c1)C2
5. COc1cc2c(NC3CCN(C(C)C)CC3)nc(C3CCCCC3)nc2cc1OCCCN1CCCC1
6. CCc1cc(/C(C)=N/OCc2ccc(C3CCCCC3)c(C(F)(F)F)c2)ccc1CN1CC(C(=O)O)C1
7. COc1ccc(-c2nc3cc(C4=NNC(=O)CC4C)ccc3[nH]2)cc1 (stereo unspecified)

// result
5.3
104
98.5
110
125
115
106

// input: 6 compounds below; output: cell viability for each
1. CN(C)C(=O)COC(=O)Cc1ccc(OC(=O)c2ccc(NC(=N)N)cc2)cc1
2. NC12CC3CC(CC(C3)C1)C2
3. COc1ccc([C@@H]2CNC(=O)C2)cc1OC1CCCC1
4. CC1(C)O[C@H]2CC(=O)OC[C@]23[C@H]2CC[C@@]4(C)[C@H](c5ccoc5)OC(=O)[C@H]5O[C@]54[C@]2(C)C(=O)C[C@@H]13
5. CCOP(=O)(OCC)C(C)NC(=O)N(CCCl)N=O (stereo unspecified)
6. Cc1ccccc1C(C(=O)NC1CCCCC1)N(C(=O)CNc1ccc(C#N)cc1)c1cccc(F)c1 (stereo unspecified)

// result
1: 126; 2: 114; 3: 103; 4: 106; 5: 128; 6: 118

// batch mode: one cell viability value per listed entry
1. CCCN[S+](=O)([O-])Nc1ncnc(OCCOc2ncc(Br)cn2)c1-c1ccc(Br)cc1
2. CCN(CC)CCOC1=CC=C(NC2=NC=C3\C=C(/C(=O)N(C)C3=N2)C4=C(Cl)C=CC=C4Cl)C=C1
3. CC1(C)OC/2=C(\[C@H](NCC3=CC=CC=C3)[C@@H]1O)C(=O)C4=CC=CC=C4C2=O
4. C[C@@]12OC(=O)[C@@]1(NC(=O)[C@@H]2CCCl)[C@@H](O)[C@H]\3CCC\C=C3

// result
[137, 58.4, 111, 10]

Quick request: cell viability for each listed item, please.
1. CC(Oc1ccc(O)cc1)(P(=O)(O)O)P(=O)(O)O
2. CC1=CC2=C(O1)C(=C3OC(=O)\C=C(C)/C3=C2)C
3. COc1ccc(-c2c(-c3ccc(O)cc3O)n[nH]c2C)cc1
4. CCC(=O)O[C@@]1([C@H](C)C[C@H]2[C@@H]3C[C@H](F)\C4=C\C(=O)\C=C/[C@]4(C)[C@@]3(F)[C@@H](O)C[C@]12C)C(=O)SCF
5. c1ccc2c(Oc3nc(Nc4ccc(N5CCOCC5)cc4)c4ncn(C5CCCCC5)c4n3)cccc2c1
6. O=C(Oc1ccc([N+](=O)[O-])cc1)N1CCN(Cc2cccc(Oc3ccccc3)c2)CC1
7. O=C1[O][Pt]2([NH]C3CCCCC3[NH]2)[O]C1=O (stereo unspecified)

// result
1. 104
2. 84.5
3. 108
4. 13.1
5. 116
6. 64.4
7. 108

---

# Tested on: P12-Ichikawa
# test_summary: cell viability relative to DMSO control; higher = less cytotoxic
# condition_info: RPMI 5 mM glucose + 10% FBS; 48 h; 0.00702 µM
parameter_measured: cell viability (%)
Answers are plain numbers, in %.

Recorded results for 5 compounds are shown here.
compound	recorded_result
C[C@H]1[C@@H](CC(C[C@H]2O[C@@H]3O[C@]4(C)CC[C@H]5[C@H](C)CC[C@@H]([C@H]2C)[C@@]35OO4)C[S+](=O)([O-])c2ccc(COC(=O)N(C)C)cc2)O[C@@H]2O[C@]3(C)CC[C@H]4[C@H](C)CC[C@@H]1[C@@]24OO3	113
c1cc(OCCN2CCCCC2)cc(-c2n[nH]c3ccc(-c4nc[nH]n4)cc23)c1	118
O=P(O)(O)C(O)(Cc1cccnc1)P(=O)(O)[O][Na] (centres undefined)	98.9
COC1=CC=C(C=C1)C/2=C/OC3=CC(=CC=C3C2=O)O	115
CC(Oc1ccc(O)cc1)(P(=O)(O)O)P(=O)(O)O	95

Need cell viability for each of these compounds.
1. O=C1c2cccc(O)c2C(=O)c2c(O)cc(CO)cc21
2. C[Se]CCC(N)C(=O)O (centres undefined)

// result
93.7
81.9

Report cell viability for every entry below.
1. CN(C)c1nc(N(C)C)nc(N(C)C)n1
2. c1ccc(-c2nn3c(c2-c2ccnc4cc(OCCN5CCOCC5)ccc24)CCC3)nc1

// result
98.3
123

---

# Tested on: SEM cells
# test_summary: cell viability relative to DMSO control; higher = less cytotoxic
# condition_info: HPLM + 10% dialyzed FBS; 48 h; 0.00234 µM
parameter_measured: cell viability
Report field: quantity (unit follows the number).

Previously resolved entries follow.
CCCn1c(=O)c2[nH]c(-c3cnn(Cc4cccc(C(F)(F)F)c4)c3)nc2n(CC)c1=O 109%
CN(C(=O)c1ccc(F)cc1C(F)(F)F)C1CCN(c2nnc(-c3ccnn3C)c3ccccc23)CC1 67.5%
COc1cc2c(NC3CCN(C(C)C)CC3)nc(C3CCCCC3)nc2cc1OCCCN1CCCC1 125%

Could you now consider this next molecule?
// query Return cell viability for the following molecule: N/C(=N\C(=O)c1nc(Cl)c(N)nc1N)NCc1ccccc1
// result 91.8%

---

# Test system: SEM cells
# test_summary: cell viability relative to DMSO control; higher = less cytotoxic
# condition_info: RPMI 5 mM glucose + 10% dialyzed FBS; 48 h; 0.0632 µM
parameter_measured: cell viability

Worked examples, 3 molecules total:
molecule	cell viability
Cc1ccccc1C(C(=O)NC1CCCCC1)N(C(=O)CNc1ccc(C#N)cc1)c1cccc(F)c1 (centres undefined)	97%
CN(C)CCC=C1C2=C(C=CC=C2)\C=C/C3=C1C=CC=C3	119%
COC1=CC=C2C(=CC=NC2=C1)OC3=CC=C(NC(=O)\C4=C(C)\N(CC(C)(C)O)N(C4=O)C5=CC=CC=C5)C=C3F	136%

Attention now shifts to the item below.
// query // fetch cell viability; item: CCC(CC)[C@H](NC(C)=O)[C@@H]1[C@H](O)[C@@H](C(=O)O)C[C@H]1NC(=N)N ; system: SEM cells
// result 81.8%

---

# Test system: NOMO1
# test_summary: cell viability relative to DMSO control; higher = less cytotoxic
# condition_info: RPMI 5 mM glucose + 10% dialyzed FBS; 48 h; 46.1 µM
parameter_measured: cell viability
# include the unit after the value

Reference set, count: 8
compound	recorded_result
Cc1cc(SCc2sc(-c3ccc(C(F)(F)F)c(F)c3)nc2C)ccc1OCC(=O)O	97%
CC1(C)O[C@H]2CC(=O)OC[C@]23[C@H]2CC[C@@]4(C)[C@H](c5ccoc5)OC(=O)[C@H]5O[C@]54[C@]2(C)C(=O)C[C@@H]13	98%
CN(C)c1nc(N(C)C)nc(N(C)C)n1	85.6%
CCCn1c(=O)c2[nH]c(C34CC5CC3C[C@@H](C5)C4)nc2n(CCC)c1=O	100%
C[Se]CCC(N)C(=O)O (centres undefined)	76.2%
c1cc(OCCN2CCCCC2)cc(-c2n[nH]c3ccc(-c4nc[nH]n4)cc23)c1	109%
OC1=C(C=CC=C1)C2=CC=C(C=C2)C3=CSC4=C3C(=C(/C#N)C(=O)N4)/O	109%
CC(C)[C@@H](N(CCCN)C(=O)C1=CC=C(C)C=C1)C/2=C(\CC3=CC=CC=C3)C(=O)C4=C(O2)C=C(Cl)C=C4	5.92%

Next, consider the following compound.
// query Let me know recorded cell viability for COc1cc2ncnc(Nc3ccc(F)c(Cl)c3)c2cc1OCCCN1CCOCC1 , thanks.
// result 75.1%
